Tested on: Pseudomonas fluorescens HPPD polypeptide (wild-type and mutants)
Assay: Coupled HPPD activity assay: turnover and residual turnover in crude HPPD polypeptide extracts with and without Cmpd. 1
Type: biochemical
Details: presence of 100 μM Cmpd. 1; changes in absorbance (OD) at 320 nm in the coupled assay, 30 min
RESULT TYPE: Residual turnover

MOLECULE: SEQ ID NO:17 (protein, mutant HPPD polypeptide) MADLYENPMGLMGFEFIEFASPTPGTLEPIFEIMGFTKVATHRSKNVHLYRQGEINLILNNEPNSIASYFAAEHGPSVCGMAFRVKDSQKAYNRALELGAQPIHIDTGPMELNLPAIKGIGGAPLYLIDRFGEGSSIYDIDFVYLEGVERNPVGAGLKVIDHLTHNVYRGRMVYWANFYEKLFNFREARYFDIKGEYTGLTSKAMSAPDGMIRIPLNEESSKGAGQIEEFLMQFNGEGIQHVAFLTDDLVKTWDALKKIGMRFMTAPGDEYYEMLEGRLPDHGEPVDQLQARGILLDGSSVEGDKRLLLQIFSETLMGPVFFEFIQRKGDDGFGPDSFKVLFESMERDQVRRGVLTAD
RESULT TYPE: Residual turnover
REPORTED MEASUREMENT: 0.075
